Biological target: pooled human IgG (human IgG1, 2, 3 and 4)
quantityMeasured: Enzyme Activity Endpoint Assay (purified): Fab′2 (ng/µL)
Give the number; ng/µL is assumed, so skip it.

input: # return recorded Enzyme Activity Endpoint Assay (purified): Fab′2 for input PRT-516 (protein) MITSVWTKGVTPPTDFIKGEDVFHAPYKAGQGWYDITKAFDGGDDLLCGAATAGNMLHWWFDQNKEEIEAYLKKHPEKQKIMFGDQELLDVRKVINTKDSQTNSALFNYFKDKAFPNLSARRLGVMPDLVLDMFINGYYLNVYKTQTTDVNRTYQTKDRRGGIFDAVFTRGDQSKLLTERHDLKNKTLNEISQLIKQELTEGKALGLSHTYANVRINHVINLWGADFDAEGNLEAIYVTDSDSNASIGMKKYFVGVNSAGKVAISAKEIKEDNIGAQVLGLFTLSTGQDIWNQTNLEHHHHHH
output: 16

Just for reference, patent US20250027068 is where these values come from.
